- TARGET OF ASSAY: T1, human 5T4ECDHis (mature protein of SEQ ID NO: 99) (human, UniProt Q13641 32-355)
- T1 construct: ECD of human 5T4 (aa 1-355 of Uniprot Q13641) with C-terminal His tag; residues 1-31 are the signal peptide; also called ECD of human 5T4 with a C-terminal His tag
- T1 sequence: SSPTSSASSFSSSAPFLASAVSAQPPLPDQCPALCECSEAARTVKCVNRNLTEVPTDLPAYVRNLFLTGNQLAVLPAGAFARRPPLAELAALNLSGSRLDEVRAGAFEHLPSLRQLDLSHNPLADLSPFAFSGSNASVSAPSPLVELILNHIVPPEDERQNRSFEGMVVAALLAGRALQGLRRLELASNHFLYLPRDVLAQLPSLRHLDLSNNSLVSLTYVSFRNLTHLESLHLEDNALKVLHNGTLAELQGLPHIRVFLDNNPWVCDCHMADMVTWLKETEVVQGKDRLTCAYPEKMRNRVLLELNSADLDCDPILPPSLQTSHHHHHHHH
- PROTOCOL DESCRIPTION: BLI, antibody on anti-human IgG Fc Capture biosensor, antigen in solution
Task for the reader: assign each of the following binders its reported kon.
Give bare numbers, in M⁻¹ s⁻¹.

IgG1-5T4-H8-FEAR (antibody, V domains shown, Based on 5T4 antibody H8 from Wyeth (WO 2007/106744); IgG1 with L234F, L235E, D265A, K409R (FEAR); also called IgG1-5T4-HS-FEAR; IgG1-5T4-H8-FEAR-FITC) VH: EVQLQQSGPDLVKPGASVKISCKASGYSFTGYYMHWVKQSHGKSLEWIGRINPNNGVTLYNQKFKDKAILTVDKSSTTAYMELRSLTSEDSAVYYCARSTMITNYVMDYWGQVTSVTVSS VL: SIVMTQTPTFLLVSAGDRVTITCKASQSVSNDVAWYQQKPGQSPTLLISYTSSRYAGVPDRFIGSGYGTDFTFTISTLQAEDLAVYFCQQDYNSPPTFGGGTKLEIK : 220000
IgG1-5T4-226-FEAR (antibody, V domains shown, Monospecific, bivalent human IgG1 kappa with L234F, L235E, D265A, K409R (FEAR); also called IgG1-5T4-226-FEAR-FITC) VH: QVQLQQWGAGLLKPSETLSLTCAVYGGSFSGYYWSWIRQPPGKGLEWIGEIDHSGSTNYNPSLKSRVTISVDTSKNQFSLKLSSVTAADTAVYYCAAWFGELWDYYYGMDVWGQGTTVTVSS VL: EIVLTQSPATLSLSPGERATLSCRASQSVSSFLAWYQQKPGQAPRLLIYDASNRATGIPARFSGSGSGTDFTLTISSLEPEDFAVYYCQQRSNWPLTFGQGTRLEIK : 330000
IgG1-5T4-106-FEAR (antibody, V domains shown, Monospecific, bivalent human IgG1 kappa with L234F, L235E, D265A, K409R (FEAR)) VH: EVQLVQSGAEVKKPGESLKISCKGSGYRFTSYWIGWVRQMPGKGLEWMGIIYPGDSDARYSPSFQGQVTISADKSISTAYLQWSSLKASDTGMYYCARSVLFDYWGQGTLVTVSS VL: AIQLTQSPSSLSASVGDRVTITCRASQGISSALAWYQQKPGKAPKLLIYDVSNLESGVPSRFSGSGSGTDFTLTISSLQPEDFATYYCQQFNSYPHTFGQGTKLEIK : 210000

Continue with the next binder.
Lab note: measured kon of IgG1-5T4-207-FEAR (antibody, V domains shown, Monospecific, bivalent IgG1 FEAR) VH: QVQLQQWGAGLLKPSETLSLTCAVYGGSFSGYYWTWIRQPPGKGLEWIGEIDHSESTNYNPSLKSRVTISVDTSKNQFSLKLSSVTAADTAVYYCAGWFGELYHYYYGMDVWGQGTTVTVSS VL: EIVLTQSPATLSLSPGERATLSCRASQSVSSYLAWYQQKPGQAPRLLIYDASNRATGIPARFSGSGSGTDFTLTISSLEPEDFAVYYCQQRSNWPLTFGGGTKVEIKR was 270000
